Biological target: pWT PDZ2 L391F (human) (UniProt Q12959)
Sequence (Q12959 311-407, change not shown): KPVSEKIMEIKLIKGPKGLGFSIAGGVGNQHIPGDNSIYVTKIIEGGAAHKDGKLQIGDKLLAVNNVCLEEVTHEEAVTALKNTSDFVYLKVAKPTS
Assay: ITC; PGKETQL peptide titrated into pWT PDZ2 L391F; iTC200, 10 °C, 50 mM potassium phosphate, pH 7.5; 1:1 model; duplicate titrations, average parameters
Ends that are not written are not given here.
quantity measured: Kd (nM)

{"columns": ["binder", "measurement unit", "observed value"],
 "data": [
  ["Ac-PGKETQL [PGKETQL peptide (C-terminus of SO1C1_HUMAN)]", "nM", 310]
]}
